Tested on: NCI-H2087
Assay: relative viability (nuclei count vs DMSO), 5 days (fraction); higher = more cells survive
Conditions: first compound 0.8 µM

{"compound": "C=C1C(=O)O[C@@H](CCCCCCCC)[C@@H]1C(=O)O [C-75] + N=C(N)NC(=N)NCCc1ccccc1 [Phenformin] (partner 250 µM)", "relative viability": 0.428}
{"compound": "C=C1C(=O)O[C@@H](CCCCCCCC)[C@@H]1C(=O)O [C-75] + Cc1cc(Nc2cc(N3CCN(C)CC3)nc(Sc3ccc(NC(=O)C4CC4)cc3)n2)n[nH]1 [Tozasertib] (partner 0.1 µM)", "relative viability": 0.179}
{"compound": "Oc1nc(-c2ccc(C(F)(F)F)cc2)nc2c1CSCC2 [XAV939] + CC(=O)c1c(C)c2cnc(Nc3ccc(N4CCNCC4)cn3)nc2n(C2CCCC2)c1=O [Palbociclib] (partner 0.5 µM)", "relative viability": 0.224}

====

Catalogue of relative viability readings, one per entry.
Tested on: NCI-H2347
Assay: relative viability (nuclei count vs DMSO), 5 days (fraction); higher = more cells survive
Settings: first compound 0.5 µM

{"compound": "CC1(C)CCC(c2ccc(Cl)cc2)=C(CN2CCN(c3ccc(C(=O)NS(=O)(=O)c4ccc(N[C@H](CCN5CCOCC5)CSc5ccccc5)c(S(=O)(=O)C(F)(F)F)c4)cc3)CC2)C1 [Navitoclax] + CS(=O)(=O)N1CCN(Cc2cc3nc(-c4cccc5[nH]ncc45)nc(N4CCOCC4)c3s2)CC1 [Pictilisib] (partner 1 µM)", "systemName": "NCI-H2347", "relative viability": 0.734}
{"compound": "CC1(C)CCC(c2ccc(Cl)cc2)=C(CN2CCN(c3ccc(C(=O)NS(=O)(=O)c4ccc(N[C@H](CCN5CCOCC5)CSc5ccccc5)c(S(=O)(=O)C(F)(F)F)c4)cc3)CC2)C1 [Navitoclax] + CS(=O)(=O)CCNCc1ccc(-c2ccc3ncnc(Nc4ccc(OCc5cccc(F)c5)c(Cl)c4)c3c2)o1 [Lapatinib] (partner 2 µM)", "systemName": "NCI-H2347", "relative viability": 0.923}
{"compound": "CC1(C)CCC(c2ccc(Cl)cc2)=C(CN2CCN(c3ccc(C(=O)NS(=O)(=O)c4ccc(N[C@H](CCN5CCOCC5)CSc5ccccc5)c(S(=O)(=O)C(F)(F)F)c4)cc3)CC2)C1 [Navitoclax] + COc1cccc2cc(-c3nc([C@H]4CC[C@H](C(=O)O)CC4)n4ncnc(N)c34)[nH]c12 [OSI-027] (partner 0.5 µM)", "systemName": "NCI-H2347", "relative viability": 0.401}
{"compound": "CC1(C)CCC(c2ccc(Cl)cc2)=C(CN2CCN(c3ccc(C(=O)NS(=O)(=O)c4ccc(N[C@H](CCN5CCOCC5)CSc5ccccc5)c(S(=O)(=O)C(F)(F)F)c4)cc3)CC2)C1 [Navitoclax] + O=C(CCCCCCC(=O)Nc1ccccc1)NO [Vorinostat] (partner 1 µM)", "systemName": "NCI-H2347", "relative viability": 0.542}

====

System: NCI-H1666
Experiment: relative viability (nuclei count vs DMSO), 5 days (fraction); higher = more cells survive
Conditions: first compound 0.01581 µM
This section presents molecules with their documented relative viability values.

{"molecule": "CC1(C)CCC(c2ccc(Cl)cc2)=C(CN2CCN(c3ccc(C(=O)NS(=O)(=O)c4ccc(N[C@H](CCN5CCOCC5)CSc5ccccc5)c(S(=O)(=O)C(F)(F)F)c4)cc3)CC2)C1 [Navitoclax] + CC(=O)c1c(C)c2cnc(Nc3ccc(N4CCNCC4)cn3)nc2n(C2CCCC2)c1=O [Palbociclib] (partner 0.5 µM)", "systemName": "NCI-H1666", "relative viability": 0.69}
{"molecule": "CC1(C)CCC(c2ccc(Cl)cc2)=C(CN2CCN(c3ccc(C(=O)NS(=O)(=O)c4ccc(N[C@H](CCN5CCOCC5)CSc5ccccc5)c(S(=O)(=O)C(F)(F)F)c4)cc3)CC2)C1 [Navitoclax] + Cc1cc(Nc2cc(N3CCN(C)CC3)nc(Sc3ccc(NC(=O)C4CC4)cc3)n2)n[nH]1 [Tozasertib] (partner 0.1 µM)", "systemName": "NCI-H1666", "relative viability": 0.638}
{"molecule": "CC1(C)CCC(c2ccc(Cl)cc2)=C(CN2CCN(c3ccc(C(=O)NS(=O)(=O)c4ccc(N[C@H](CCN5CCOCC5)CSc5ccccc5)c(S(=O)(=O)C(F)(F)F)c4)cc3)CC2)C1 [Navitoclax] + COc1cc2c(Oc3ccc(NC(=O)C4(C(=O)Nc5ccc(F)cc5)CC4)cc3F)ccnc2cc1OCCCN1CCOCC1 [Foretinib] (partner 0.25 µM)", "systemName": "NCI-H1666", "relative viability": 1.04}
{"molecule": "CC1(C)CCC(c2ccc(Cl)cc2)=C(CN2CCN(c3ccc(C(=O)NS(=O)(=O)c4ccc(N[C@H](CCN5CCOCC5)CSc5ccccc5)c(S(=O)(=O)C(F)(F)F)c4)cc3)CC2)C1 [Navitoclax] + C[C@]1(O)C[C@@H](c2nc(-c3ccc4ccc(-c5ccccc5)nc4c3)c3c(N)nccn32)C1 [Linsitinib] (partner 1 µM)", "systemName": "NCI-H1666", "relative viability": 0.954}
{"molecule": "CC1(C)CCC(c2ccc(Cl)cc2)=C(CN2CCN(c3ccc(C(=O)NS(=O)(=O)c4ccc(N[C@H](CCN5CCOCC5)CSc5ccccc5)c(S(=O)(=O)C(F)(F)F)c4)cc3)CC2)C1 [Navitoclax] + N=C(N)NC(=N)NCCc1ccccc1 [Phenformin] (partner 250 µM)", "systemName": "NCI-H1666", "relative viability": 0.573}

====

The compounds listed here are annotated with their relative viability.
Test system: NCI-H650
Assay: relative viability (nuclei count vs DMSO), 5 days (fraction); higher = more cells survive
Conditions: first compound 0.08 µM
valueType: relative viability

{"compound": "Oc1nc(-c2ccc(C(F)(F)F)cc2)nc2c1CSCC2 [XAV939] + N=C(N)NC(=N)NCCc1ccccc1 [Phenformin] (partner 250 µM)", "result": 0.474}
{"compound": "Oc1nc(-c2ccc(C(F)(F)F)cc2)nc2c1CSCC2 [XAV939] + CC(C)C[C@H](NC(=O)[C@H](Cc1ccccc1)NC(=O)c1cnccn1)B(O)O [Bortezomib] (partner 0.002 µM)", "result": 0.838}
{"compound": "C=C1C(=O)O[C@@H](CCCCCCCC)[C@@H]1C(=O)O [C-75] + O=C(CCCCCCC(=O)Nc1ccccc1)NO [Vorinostat] (partner 1 µM)", "result": 0.413}

====

Tested on: NCI-H1437
Assay: relative viability (nuclei count vs DMSO), 5 days (fraction); higher = more cells survive
Conditions: first compound 0.08 µM
Checkbox rule: relative viability lower than 0.6 = Yes; relative viability not lower than 0.6 = No.

{"compound": "C=C1C(=O)O[C@@H](CCCCCCCC)[C@@H]1C(=O)O [C-75] + NC(=O)Nc1cc(-c2cccc(F)c2)sc1C(=O)N[C@H]1CCCNC1 [AZD7762] (partner 0.2 µM)", "classification": "No"}
{"compound": "Oc1nc(-c2ccc(C(F)(F)F)cc2)nc2c1CSCC2 [XAV939] + CC(=O)Nc1cccc(-n2c(=O)n(C3CC3)c(=O)c3c(Nc4ccc(I)cc4F)n(C)c(=O)c(C)c32)c1 [Trametinib] (partner 0.02 µM)", "classification": "Yes"}
{"compound": "C=C1C(=O)O[C@@H](CCCCCCCC)[C@@H]1C(=O)O [C-75] + CC(C)C[C@H](NC(=O)[C@H](Cc1ccccc1)NC(=O)c1cnccn1)B(O)O [Bortezomib] (partner 0.002 µM)", "classification": "Yes"}
{"compound": "Oc1nc(-c2ccc(C(F)(F)F)cc2)nc2c1CSCC2 [XAV939] + CC(=O)c1c(C)c2cnc(Nc3ccc(N4CCNCC4)cn3)nc2n(C2CCCC2)c1=O [Palbociclib] (partner 0.5 µM)", "classification": "Yes"}
{"compound": "C=C1C(=O)O[C@@H](CCCCCCCC)[C@@H]1C(=O)O [C-75] + COc1cccc2cc(-c3nc([C@H]4CC[C@H](C(=O)O)CC4)n4ncnc(N)c34)[nH]c12 [OSI-027] (partner 0.5 µM)", "classification": "No"}
{"compound": "C=C1C(=O)O[C@@H](CCCCCCCC)[C@@H]1C(=O)O [C-75] + CC(=O)Nc1cccc(-n2c(=O)n(C3CC3)c(=O)c3c(Nc4ccc(I)cc4F)n(C)c(=O)c(C)c32)c1 [Trametinib] (partner 0.02 µM)", "classification": "Yes"}
{"compound": "Oc1nc(-c2ccc(C(F)(F)F)cc2)nc2c1CSCC2 [XAV939] + Nc1ncn([C@H]2C[C@H](O)[C@@H](CO)O2)c(=O)n1 [Decitabine] (partner 2 µM)", "classification": "No"}
{"compound": "Oc1nc(-c2ccc(C(F)(F)F)cc2)nc2c1CSCC2 [XAV939] + COc1cc2c(Oc3ccc(NC(=O)C4(C(=O)Nc5ccc(F)cc5)CC4)cc3F)ccnc2cc1OCCCN1CCOCC1 [Foretinib] (partner 0.25 µM)", "classification": "No"}
{"compound": "Oc1nc(-c2ccc(C(F)(F)F)cc2)nc2c1CSCC2 [XAV939] + Cc1nc(Nc2ncc(C(=O)Nc3c(C)cccc3Cl)s2)cc(N2CCN(CCO)CC2)n1 [Dasatinib] (partner 0.075 µM)", "classification": "Yes"}
{"compound": "C=C1C(=O)O[C@@H](CCCCCCCC)[C@@H]1C(=O)O [C-75] + Cc1nc(Nc2ncc(C(=O)Nc3c(C)cccc3Cl)s2)cc(N2CCN(CCO)CC2)n1 [Dasatinib] (partner 0.075 µM)", "classification": "Yes"}
{"compound": "C=C1C(=O)O[C@@H](CCCCCCCC)[C@@H]1C(=O)O [C-75] + C[C@@H](Oc1cc(-c2cnn(C3CCNCC3)c2)cnc1N)c1c(Cl)ccc(F)c1Cl [Crizotinib] (partner 1 µM)", "classification": "No"}
{"compound": "C=C1C(=O)O[C@@H](CCCCCCCC)[C@@H]1C(=O)O [C-75] + CS(=O)(=O)CCNCc1ccc(-c2ccc3ncnc(Nc4ccc(OCc5cccc(F)c5)c(Cl)c4)c3c2)o1 [Lapatinib] (partner 2 µM)", "classification": "No"}
